target: mGlu1 P58H/N264H mutant (Rattus norvegicus, UniProt P23385, N264H/P58H); experiment: Fura-2 Ca2+ imaging in HEK293 cells expressing mGlu1 P58H/N264H; details: HEK293 cells, Fura-2; read-out: EC50, Ca2+ response (Δratio)
Sequence (P23385 19-1199 P58H/N264H): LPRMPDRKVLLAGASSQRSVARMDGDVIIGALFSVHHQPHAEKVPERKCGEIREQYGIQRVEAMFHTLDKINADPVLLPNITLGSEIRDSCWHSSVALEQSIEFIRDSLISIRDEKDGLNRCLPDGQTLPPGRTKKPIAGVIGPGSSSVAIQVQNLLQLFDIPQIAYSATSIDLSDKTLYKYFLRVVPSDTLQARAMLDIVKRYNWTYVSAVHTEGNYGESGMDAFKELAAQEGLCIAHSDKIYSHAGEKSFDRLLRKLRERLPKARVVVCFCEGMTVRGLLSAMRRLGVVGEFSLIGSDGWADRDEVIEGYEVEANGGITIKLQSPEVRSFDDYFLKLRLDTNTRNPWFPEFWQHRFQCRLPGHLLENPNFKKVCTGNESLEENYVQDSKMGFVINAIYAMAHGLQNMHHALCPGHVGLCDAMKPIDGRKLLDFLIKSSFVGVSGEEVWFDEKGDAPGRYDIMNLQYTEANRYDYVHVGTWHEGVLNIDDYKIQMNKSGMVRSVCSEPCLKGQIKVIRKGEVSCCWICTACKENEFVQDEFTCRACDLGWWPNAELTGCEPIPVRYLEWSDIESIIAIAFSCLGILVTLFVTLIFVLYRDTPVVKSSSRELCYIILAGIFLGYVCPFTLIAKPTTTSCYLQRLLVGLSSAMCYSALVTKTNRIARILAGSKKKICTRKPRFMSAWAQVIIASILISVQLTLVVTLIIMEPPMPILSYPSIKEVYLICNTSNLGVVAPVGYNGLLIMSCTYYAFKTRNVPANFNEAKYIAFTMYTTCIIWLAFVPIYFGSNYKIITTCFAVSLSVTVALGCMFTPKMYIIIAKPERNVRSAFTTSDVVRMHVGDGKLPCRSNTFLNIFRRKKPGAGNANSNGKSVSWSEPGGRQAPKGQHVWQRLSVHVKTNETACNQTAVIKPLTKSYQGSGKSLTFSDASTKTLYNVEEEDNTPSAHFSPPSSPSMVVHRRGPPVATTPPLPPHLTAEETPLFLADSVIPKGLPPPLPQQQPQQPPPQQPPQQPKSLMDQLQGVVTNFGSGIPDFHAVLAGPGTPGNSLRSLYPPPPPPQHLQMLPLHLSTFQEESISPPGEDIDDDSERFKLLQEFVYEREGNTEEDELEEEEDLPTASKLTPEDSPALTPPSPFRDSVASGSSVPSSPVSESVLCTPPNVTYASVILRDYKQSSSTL
EXPERIMENTAL ENDPOINT: EC50 (µM)

* O=[N+]([O-])[O-].O=[N+]([O-])[O-].[Pd+2].c1ccc(-c2ccccn2)nc1 | 1.2

====

molecular target: mGlu1 A59H/N264H mutant (Rattus norvegicus, UniProt P23385, A59H/N264H); assay: Fura-2 Ca2+ imaging in HEK293 cells expressing mGlu1 A59H/N264H; details: HEK293 cells, Fura-2; read-out: EC50, Ca2+ response (Δratio)
Sequence (P23385 19-1199 A59H/N264H): as the sequence (P23385 19-1199 P58H/N264H) above, with H40P, A41H counted along it
pEC50: −log10 of the molar value.
EXPERIMENTAL ENDPOINT: pEC50

* O=[N+]([O-])[O-].O=[N+]([O-])[O-].[Pd+2].c1ccc(-c2ccccn2)nc1 | 5.42

====

Attribute: Ca2+ response (delta ratio), A59H/G266H
target: mGlu1 A59H/G266H mutant (Rattus norvegicus, UniProt P23385, A59H/G266H); construct: expressed in transfected cells; host or cells: HEK293; test: Fura-2 Ca2+ imaging in HEK293 cells expressing mGlu1 A59H/G266H; assay type: cell-based; settings: Fig.1e; also: test concentration or dose not given here
Sequence (P23385 19-1199 A59H/G266H): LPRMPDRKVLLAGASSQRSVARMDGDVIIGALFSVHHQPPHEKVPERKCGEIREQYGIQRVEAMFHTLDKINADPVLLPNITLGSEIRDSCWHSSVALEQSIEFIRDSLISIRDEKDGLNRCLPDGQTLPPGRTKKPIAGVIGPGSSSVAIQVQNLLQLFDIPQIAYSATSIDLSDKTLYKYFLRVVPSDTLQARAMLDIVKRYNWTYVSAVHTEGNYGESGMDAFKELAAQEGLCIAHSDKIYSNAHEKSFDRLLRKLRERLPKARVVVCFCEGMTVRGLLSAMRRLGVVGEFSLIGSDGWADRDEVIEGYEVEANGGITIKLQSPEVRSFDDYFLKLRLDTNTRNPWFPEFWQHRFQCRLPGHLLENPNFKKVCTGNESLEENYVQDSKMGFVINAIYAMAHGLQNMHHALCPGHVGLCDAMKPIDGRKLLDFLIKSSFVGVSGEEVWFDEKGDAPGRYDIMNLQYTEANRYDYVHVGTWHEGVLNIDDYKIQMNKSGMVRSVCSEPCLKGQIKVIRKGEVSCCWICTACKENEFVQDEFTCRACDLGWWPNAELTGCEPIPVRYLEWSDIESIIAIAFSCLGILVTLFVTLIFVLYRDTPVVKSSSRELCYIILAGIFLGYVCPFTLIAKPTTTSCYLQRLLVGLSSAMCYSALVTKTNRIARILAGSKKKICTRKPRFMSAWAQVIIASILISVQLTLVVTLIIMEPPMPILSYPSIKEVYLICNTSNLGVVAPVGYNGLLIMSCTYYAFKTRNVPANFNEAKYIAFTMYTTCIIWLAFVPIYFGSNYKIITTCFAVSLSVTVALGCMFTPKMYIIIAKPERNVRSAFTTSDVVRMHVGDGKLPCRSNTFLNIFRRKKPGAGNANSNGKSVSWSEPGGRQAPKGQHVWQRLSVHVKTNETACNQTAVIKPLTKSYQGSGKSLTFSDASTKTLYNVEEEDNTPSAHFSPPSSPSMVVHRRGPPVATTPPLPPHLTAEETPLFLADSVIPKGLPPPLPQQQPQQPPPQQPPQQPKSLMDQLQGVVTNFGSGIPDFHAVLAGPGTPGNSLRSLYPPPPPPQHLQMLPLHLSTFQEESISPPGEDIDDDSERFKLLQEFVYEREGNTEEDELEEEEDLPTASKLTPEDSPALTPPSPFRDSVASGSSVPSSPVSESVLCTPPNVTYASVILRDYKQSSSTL
EXPERIMENTAL ENDPOINT: Ca2+ response (delta ratio), A59H/G266H

• [Cl][Cu][Cl] [CuCl2] = -0.01398
• [Cl-].[Cl-].[Zn+2] [ZnCl2] = -0.01208
• [Cl][Ni][Cl] [NiCl2] = -3.81E-05
• [Cl][Cd][Cl] [CdCl2] = 0.001928

====

In this section, each of the compounds is paired with its reported Ca2+ response (delta ratio), WT.
target: WT mGlu1 (Rattus norvegicus, UniProt P23385); construct: expressed in transfected cells; host or cells: HEK293; type: cell-based; conditions: Fig.1e; also: test concentration or dose not given here
Sequence (P23385 19-1199): as the sequence (P23385 19-1199 A59H/G266H) above, with H41A, H248G counted along it
EXPERIMENTAL ENDPOINT: Ca2+ response (delta ratio), WT

* [Cl][Cu][Cl] [CuCl2] | 0.02902
* [Cl-].[Cl-].[Zn+2] [ZnCl2] | 0.00492
* [Cl][Ni][Cl] [NiCl2] | 0.03319
* [Cl][Cd][Cl] [CdCl2] | 0.005362

====

biological target: mGlu1 A59H/N264H mutant (Rattus norvegicus, UniProt P23385, A59H/N264H); construct: expressed in transfected cells; host or cells: HEK293; assay: Fura-2 Ca2+ imaging in HEK293 cells expressing mGlu1 A59H/N264H; type: cell-based; conditions: Fig.1e
This listing pairs compounds with measured Ca2+ response (delta ratio), A59H/N264H.
EXPERIMENTAL ENDPOINT: Ca2+ response (delta ratio), A59H/N264H

- [Cl][Ni][Cl]: 0.05683
- [Cl-].[Cl-].[Zn+2]: 0.00725
- [Cl][Cd][Cl]: 0.02484
- [Cl][Cu][Cl]: -0.008971

====

molecular target: mGlu1(N264H) mutant (Rattus norvegicus, UniProt P23385, N264H); construct: expressed in transfected cells; host or cells: HEK293; assay: Fura-2 Ca2+ imaging in HEK293 cells expressing mGlu1(N264H); type: cell-based; settings: HEK293 cells, Fura-2; read-out: EC50, Ca2+ response (Δratio)
Sequence (P23385 19-1199 N264H): as the sequence (P23385 19-1199 P58H/N264H) above, with H40P counted along it
pEC50: −log10 of the molar value.
EXPERIMENTAL ENDPOINT: pEC50

* OCc1ccnc(-c2cc(CO)ccn2)c1.[Cl][Pd][Cl] [Pd(OH-bpy)] | 5.96
* Cc1ccnc(-c2cc(COCCCS(=O)(=O)[O-])ccn2)c1.[Cl][Pd][Cl].[Na+] [Pd(sulfo-bpy)] | 6.21
* O=[N+]([O-])[O-].O=[N+]([O-])[O-].[Pd+2].c1ccc(-c2ccccn2)nc1 [Pd(bpy), Pd(bpy)(NO3)2] | 5.80

Where do these numbers come from? They come from paper PMC9203742.
